# credit: PubChem BioAssay (NCI)

tested on: TK-10 renal; experiment: NCI-60 one-dose screen, 48 h; conditions: 10 µM unless noted
About 83,000 compounds went through this panel and 20% of them were active in at least one assay; those are over-represented in the sample as a whole. Activity calls are given as the source filed them. How the source made its calls: active means growth percent below 10; inactive means the rest.
Outcomes you can answer with include only these: active, inactive

Recorded results for 2 compounds are shown here.
So what was the verdict on "C#CCOc1ccc2ncnc(NCc3cccc(NC(=O)CCl)c3)c2c1" in this test? inactive

Record lookup: outcome of this test for "COc1cc(/C=C/C(=O)c2c(C)oc3nc[nH]c(=O)c23)cc(OC)c1OC" ? inactive

Next:
Could you please tell me the result logged for "CN(Cc1cc(Cl)cc(Cl)c1O)Cc1cc(Cl)cc(Cl)c1O" in this assay? inactive

Outcome? CC(C)C[C@@H](NC(=O)[C@@H](Cc1ccccc1)NC(=O)c1cnccn1)B1Oc2ccc(C[C@H](NC(=O)[C@H](Cc3ccc4c(c3)OB([C@@H](CC(C)C)NC(=O)[C@@H](Cc3ccccc3)NC(=O)c3cnccn3)O4)NC(=O)[C@@H](N)CC3CCC4OB([C@@H](CC(C)C)NC(=O)[C@@H](CC5CCCCC5)NC(=O)C5CNCCN5)OC4C3)C(=O)NCCCC[C@@H]3NC(=O)[C@@H](Cc4ccccc4)NC(=O)[C@H](CC(=O)O)NC(=O)CNC(=O)[C@H](CCCNC(=N)N)NC3=O)cc2O1 (stereo not given in full) active

Each compound tested received a call. Report the one for CCOc1cc2ncc(C#N)c(Nc3ccc(OCc4cccc(F)c4)c(Cl)c3)c2cc1NC(=O)CC1CCSS1 (stereo not given) . inactive

Hi team, can someone confirm the assay call for "COc1ccc(-c2cc(NC(=O)Nc3ccc4ncsc4c3)no2)cc1" ? inactive

Assay outcome for "CC(=O)Nc1ccc(S(=O)(=O)Nc2cccc(-c3nc(-c4ccc(NC(=O)c5cccnc5)cc4Cl)no3)c2)cc1" : what was it? inactive

What is the recorded call for this compound in the test? "CN1CCN(Cc2ccc(NC(=O)c3cncc(C#Cc4cncn5ccnc45)c3)cc2C(F)(F)F)CC1" inactive

Which outcome was assigned to "CSc1nc(Nc2cccc(NC(=O)CCl)c2)c(C#N)c(-c2cccc([N+](=O)[O-])c2)n1" in this test? inactive

What was the test verdict on CC1SC(c2ccc(N(C)C)cc2)N(NC(=O)C(O)(c2ccccc2)c2ccccc2)C1=O (stereo not given) ? inactive
